B1: SMOC2 (parent)
chain: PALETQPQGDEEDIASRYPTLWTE

variants of: B1; assay: protein stability index of a GFP-peptide fusion (GPS, HEK-293T) (PSI 1-6); higher = more stable; conditions: c terminus: a fixed tail appended;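 note: lentivirally expressed fusions sorted by FACS into six bins by GFP to DsRed ratio, PSI derived from sequencing read proportions per bin multiplied by bin number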
Okay, here is how we bin by protein stability index: Low (below 4), Medium (4 to below 5), High (5 or more)

Examples with answers:
P19S    Medium
P7R    Low
P19A    High
P1R    Medium
T5W    Medium
A15W    Medium

Query: Each variant maps to one class by protein stability index. Which class for E24H ?
Reply: Medium

Query: Each variant maps to one class by protein stability index. Which class for W22Y ?
Reply: Medium

Query: Each variant maps to one class by protein stability index. Which class for S16L ?
Reply: Medium

Query: Each variant maps to one class by protein stability index. Which class for E24L ?
Reply: Medium

Query: Each variant maps to one class by protein stability index. Which class for A2F ?
Reply: Medium

Query: Each variant maps to one class by protein stability index. Which class for L21S ?
Reply: Medium
